# EE (%) N/P:6 values compiled below
assayProcedure: Plate-based fluorescence (RiboGreen) assay: nucleic acid cargo content and encapsulation efficiency of LNPs
Assay type: physicochemical
protocolConditions: LNP, Formulation F3, N/P 6
endpoint: EE (%) N/P:6

* CCCCC/C=C\C/C=C\CCCCCCCC(=O)OCC(COC(=O)CCCCCCC/C=C\C/C=C\CCCCC)(COC(=O)CCC(CCCCCC)OC(=O)NCCN1CCCC1)COC(=O)CCC(OCCCCCCCC)OCCCCCCCC (stereo not shown) [Compound 6] | 100
* CCCCC/C=C\CCOC(=O)CCCCCC(=O)OCC(COC(=O)CCCCCC(=O)OCC/C=C\CCCCC)(COC(=O)CCC(CCCCCC)OC(=O)NCCN1CCCC1)COC(=O)CCC(OCCCCCCCC)OCCCCCCCC (stereo not shown) [Compound 9] | 99
* CCCCC/C=C\CCOC(=O)CCCCC(=O)OCC(COC(=O)CCCCC(=O)OCC/C=C\CCCCC)(COC(=O)CCC(CCCCCC)OC(=O)NCCN1CCCC1)COC(=O)CC12CC3CC(CC(C3)C1)C2 (stereo not shown) [Compound 14] | 99
* CCCCCCCCOC(CCC(=O)OCC(COC(=O)CCCCCCOC(=O)C(CCCC)CCCCCC)(COC(=O)CCC(CCCCCC)OC(=O)NCCN1CCCC1)COC(=O)CCC(OCCCCCCCC)OCCCCCCCC)OCCCCCCCC (stereo not shown) [Compound 20] | 100
* CCCCC/C=C\CCOC(=O)CCCCCC(=O)OCC(COC(=O)CCCCCC(=O)OCC/C=C\CCCCC)(COC(=O)CCC(CCCCCC)OC(=O)NCCN1CCCC1)COC(=O)CC12CC3CC(CC(C3)C1)C2 (stereo not shown) [Compound 8] | 95
* CCCCCCCC/C=C\CCCCCCCC(=O)OCC(COC(=O)CCCCCCC/C=C\CCCCCCCC)(COC(=O)CCCCCCC/C=C\CCCCCCCC)COC(=O)CCC(CCCCCC)OC(=O)NCCN1CCCC1 (stereo not shown) [Compound 1] | 100
* CCCCC/C=C\C/C=C\CCCCCCCC(=O)OCC(COC(=O)CCCCCCC/C=C\C/C=C\CCCCC)(COC(=O)CCCCCCC/C=C\C/C=C\CCCCC)COC(=O)CCC(CCCCCC)OC(=O)NCCN1CCCC1 (stereo not shown) [Compound 2] | 98
* CCCCCCCC/C=C\CCCCCCCC(=O)OCC(COC(=O)CCCCCCC/C=C\CCCCCCCC)(COC(=O)CCC(CCCCCC)OC(=O)NCCN1CCCC1)COC(=O)CC12CC3CC(CC(C3)C1)C2 (stereo not shown) [Compound 3] | 98
* CCCCC/C=C\CCOC(=O)CCCCCCC(=O)OCC(COC(=O)CCCCCCC(=O)OCC/C=C\CCCCC)(COC(=O)CCC(CCCCCC)OC(=O)NCCN1CCCC1)COC(=O)CCC(OCCCCCCCC)OCCCCCCCC (stereo not shown) [Compound 12] | 97
* CCCCC/C=C\CCOC(=O)CCCCCC(=O)OCC(COC(=O)CCCCCC(=O)OCC/C=C\CCCCC)(COC(=O)CCCCCC(=O)OCC/C=C\CCCCC)COC(=O)CCC(CCCCCC)OC(=O)NCCN1CCCC1 (stereo not shown) [Compound 7] | 98
* CCCCCCC(CCC(=O)OCC(COC(=O)CCCCCCOC(=O)C(CCCC)CCCCCC)(COC(=O)CCCCCCOC(=O)C(CCCC)CCCCCC)COC(=O)CCCCCCOC(=O)C(CCCC)CCCCCC)OC(=O)NCCN1CCCC1 (stereo not shown) [Compound 18] | 99
* CCCCCCCC/C=C\CCCCCCCC(=O)OCC(COC(=O)CCCCCCC/C=C\CCCCCCCC)(COC(=O)CCC(CCCCCC)OC(=O)NCCN1CCCC1)COC(=O)CCC(OCCCCCCCC)OCCCCCCCC (stereo not shown) [Compound 4] | 100
* CCCCC/C=C\CCOC(=O)CCCCCC(=O)OCC(COC(=O)CCCCCCOC(=O)C(CCCC)CCCCCC)(COC(=O)CCCCCC(=O)OCC/C=C\CCCCC)COC(=O)CCC(CCCCCC)OC(=O)NCCN1CCCC1 (stereo not shown) [Compound 16] | 98
* CCCCC/C=C\CCOC(=O)CCCCCCC(=O)OCC(COC(=O)CCCCCCC(=O)OCC/C=C\CCCCC)(COC(=O)CCCCCCC(=O)OCC/C=C\CCCCC)COC(=O)CCC(CCCCCC)OC(=O)NCCN1CCCC1 (stereo not shown) [Compound 10] | 100
* CCCCC/C=C\CCOC(=O)CCCCCCC(=O)OCC(COC(=O)CCCCCCC(=O)OCC/C=C\CCCCC)(COC(=O)CCC(CCCCCC)OC(=O)NCCN1CCCC1)COC(=O)CC12CC3CC(CC(C3)C1)C2 (stereo not shown) [Compound 11] | 97
* CCCCC/C=C\C/C=C\CCCCCCCC(=O)OCC(COC(=O)CCCCCCC/C=C\C/C=C\CCCCC)(COC(=O)CCC(CCCCCC)OC(=O)NCCN1CCCC1)COC(=O)CC12CC3CC(CC(C3)C1)C2 (stereo not shown) [Compound 5] | 98

###

assayProcedure: Dynamic light scattering: LNP particle size and PDI
Type: physicochemical
protocolConditions: LNP compositions for Formulation F2 Study
# strict inequality: Particle Size (nm) < 100 nm yields Satisfied, everything else yields Not satisfied

* CCCCC/C=C\C/C=C\CCCCCCCCC(CCCCCCCC/C=C\C/C=C\CCCCC)OC(=O)CCCN(C)C [MC3, reference compound] | Satisfied
* CCCCC/C=C\CCOC(=O)CCCCCC(=O)OCC(COC(=O)CCCCCC(=O)OCC/C=C\CCCCC)(COC(=O)CCC(CCCCCC)OC(=O)NCCN1CCCC1)COC(=O)CC12CC3CC(CC(C3)C1)C2 (stereo not drawn) | Not satisfied
* CCCCC/C=C\CCOC(=O)CCCCCC(=O)OCC(COC(=O)CCCCCC(=O)OCC/C=C\CCCCC)(COC(=O)CCCCCC(=O)OCC/C=C\CCCCC)COC(=O)CCC(CCCCCC)OC(=O)NCCN1CCCC1 (stereo not drawn) | Not satisfied
* CCCCC/C=C\CCOC(=O)CCCCC(=O)OCC(COC(=O)CCCCC(=O)OCC/C=C\CCCCC)(COC(=O)CCC(CCCCCC)OC(=O)NCCN1CCCC1)COC(=O)CC12CC3CC(CC(C3)C1)C2 (stereo not drawn) | Not satisfied
* CCCCC/C=C\CCOC(=O)CCCCCCC(=O)OCC(COC(=O)CCCCCCC(=O)OCC/C=C\CCCCC)(COC(=O)CCCCCCC(=O)OCC/C=C\CCCCC)COC(=O)CCC(CCCCCC)OC(=O)NCCN1CCCC1 (stereo not drawn) | Not satisfied
* CCCCCCC(CCC(=O)OCC(COC(=O)CCCCCCOC(=O)C(CCCC)CCCCCC)(COC(=O)CCCCCCOC(=O)C(CCCC)CCCCCC)COC(=O)CCCCCCOC(=O)C(CCCC)CCCCCC)OC(=O)NCCN1CCCC1 (stereo not drawn) | Satisfied

###

assayProcedure: Dynamic light scattering: LNP particle size and PDI
Type: physicochemical
protocolConditions: LNP compositions for Formulation F2 Study
endpoint: PDI

* CCCCC/C=C\CCOC(=O)CCCCCCC(=O)OCC(COC(=O)CCCCCCC(=O)OCC/C=C\CCCCC)(COC(=O)CCCCCCC(=O)OCC/C=C\CCCCC)COC(=O)CCC(CCCCCC)OC(=O)NCCN1CCCC1 (stereo not drawn) [Compound 10] | 0.139
* CCCCC/C=C\CCOC(=O)CCCCC(=O)OCC(COC(=O)CCCCC(=O)OCC/C=C\CCCCC)(COC(=O)CCC(CCCCCC)OC(=O)NCCN1CCCC1)COC(=O)CC12CC3CC(CC(C3)C1)C2 (stereo not drawn) [Compound 14] | 0.178
* CCCCC/C=C\CCOC(=O)CCCCCC(=O)OCC(COC(=O)CCCCCC(=O)OCC/C=C\CCCCC)(COC(=O)CCCCCC(=O)OCC/C=C\CCCCC)COC(=O)CCC(CCCCCC)OC(=O)NCCN1CCCC1 (stereo not drawn) [Compound 7] | 0.086
* CCCCC/C=C\CCOC(=O)CCCCCC(=O)OCC(COC(=O)CCCCCC(=O)OCC/C=C\CCCCC)(COC(=O)CCC(CCCCCC)OC(=O)NCCN1CCCC1)COC(=O)CC12CC3CC(CC(C3)C1)C2 (stereo not drawn) [Compound 8] | 0.071
* CCCCC/C=C\C/C=C\CCCCCCCCC(CCCCCCCC/C=C\C/C=C\CCCCC)OC(=O)CCCN(C)C [MC3, reference compound] | 0.098
* CCCCCCC(CCC(=O)OCC(COC(=O)CCCCCCOC(=O)C(CCCC)CCCCCC)(COC(=O)CCCCCCOC(=O)C(CCCC)CCCCCC)COC(=O)CCCCCCOC(=O)C(CCCC)CCCCCC)OC(=O)NCCN1CCCC1 (stereo not drawn) [Compound 18] | 0.059
